system_under_test: Cytochrome P450 1A2 (Homo sapiens, UniProt P05177)
Sequence (P05177 whole entry): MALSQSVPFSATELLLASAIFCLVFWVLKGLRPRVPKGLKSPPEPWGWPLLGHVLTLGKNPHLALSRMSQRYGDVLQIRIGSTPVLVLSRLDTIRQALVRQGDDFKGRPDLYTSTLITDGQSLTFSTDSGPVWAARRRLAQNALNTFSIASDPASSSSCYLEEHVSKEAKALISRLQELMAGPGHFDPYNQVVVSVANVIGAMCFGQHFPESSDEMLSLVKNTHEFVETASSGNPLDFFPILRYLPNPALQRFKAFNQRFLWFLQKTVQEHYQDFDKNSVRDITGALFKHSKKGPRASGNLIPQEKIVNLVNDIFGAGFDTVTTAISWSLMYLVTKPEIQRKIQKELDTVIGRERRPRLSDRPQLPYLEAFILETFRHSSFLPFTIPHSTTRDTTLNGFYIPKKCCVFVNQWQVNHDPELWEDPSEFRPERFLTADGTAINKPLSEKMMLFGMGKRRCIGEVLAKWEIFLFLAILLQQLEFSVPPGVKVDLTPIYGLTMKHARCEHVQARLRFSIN
outcome_measure: IC50

smiles_representation=CC(=O)N1CCCn2nc(COc3ccccc3)cc21 system_under_test="Cytochrome P450 1A2 (Homo sapiens, UniProt P05177)" observed_value="> 30 µM"

* * *

System: Brain
assay_text: Drug concentration in Sprague-Dawley rat brain at 56.6 mg/kg, po
Assay type: ADME, organism-based
run_conditions: in vivo, read-out: Drug uptake
outcome_measure: concentration (µM)

smiles_representation=CC(=O)N1CCCn2nc(COc3ccccc3)cc21 outcome_measure=concentration unit_annotation=µM observed_value=113

* * *

system_under_test: Metabotropic glutamate receptor 5 (Rattus norvegicus)
Sequence (P31424 whole entry): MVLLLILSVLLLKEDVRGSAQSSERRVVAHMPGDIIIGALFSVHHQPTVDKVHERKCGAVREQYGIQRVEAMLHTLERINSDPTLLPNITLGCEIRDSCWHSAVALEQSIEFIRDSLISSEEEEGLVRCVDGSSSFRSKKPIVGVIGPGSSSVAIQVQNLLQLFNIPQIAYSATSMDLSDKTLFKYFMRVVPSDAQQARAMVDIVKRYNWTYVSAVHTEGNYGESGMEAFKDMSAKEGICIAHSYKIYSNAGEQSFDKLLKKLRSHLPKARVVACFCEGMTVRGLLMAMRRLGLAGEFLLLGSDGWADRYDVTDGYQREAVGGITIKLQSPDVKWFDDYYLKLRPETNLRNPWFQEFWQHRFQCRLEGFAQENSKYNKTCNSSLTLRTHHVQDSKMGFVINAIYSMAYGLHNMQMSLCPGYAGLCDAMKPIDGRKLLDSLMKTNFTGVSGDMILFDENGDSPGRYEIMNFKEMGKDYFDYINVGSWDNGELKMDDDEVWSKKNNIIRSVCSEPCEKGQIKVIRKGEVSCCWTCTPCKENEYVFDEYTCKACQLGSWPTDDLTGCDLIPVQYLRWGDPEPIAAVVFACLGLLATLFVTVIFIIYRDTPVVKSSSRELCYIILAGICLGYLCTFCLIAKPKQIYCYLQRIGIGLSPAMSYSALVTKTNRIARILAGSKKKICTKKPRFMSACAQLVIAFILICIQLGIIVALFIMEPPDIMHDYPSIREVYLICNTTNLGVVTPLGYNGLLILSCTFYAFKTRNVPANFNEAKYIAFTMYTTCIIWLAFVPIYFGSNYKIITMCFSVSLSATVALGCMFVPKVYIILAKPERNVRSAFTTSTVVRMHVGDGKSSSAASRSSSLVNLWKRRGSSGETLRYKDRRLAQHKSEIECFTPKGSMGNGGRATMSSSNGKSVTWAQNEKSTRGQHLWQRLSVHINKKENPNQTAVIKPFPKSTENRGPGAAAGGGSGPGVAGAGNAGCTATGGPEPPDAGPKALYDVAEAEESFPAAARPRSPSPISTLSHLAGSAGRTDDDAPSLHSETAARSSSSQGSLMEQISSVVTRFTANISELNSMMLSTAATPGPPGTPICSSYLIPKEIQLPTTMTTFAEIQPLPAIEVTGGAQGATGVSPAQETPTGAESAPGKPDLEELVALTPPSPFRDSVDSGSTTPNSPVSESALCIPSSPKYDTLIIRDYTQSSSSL
assay_text: Positive allosteric modulation of rat mGlu5 assessed as calcium mobilization by cell-based assay
outcome_measure: EC50 (nM)

smiles_representation=CC(=O)N1CCCn2nc(COc3ccccc3)cc21 observed_value=60

* * *

assay_text: Elimination half life in dog at 1 mg/kg, iv and 5 mg/kg, po
Assay type: ADME, organism-based, Canis lupus familiaris
run_conditions: in vivo
outcome_measure: half-life

smiles_representation=CC(=O)N1CCCn2nc(COc3ccccc3)cc21 outcome_measure=half-life observed_value="< 30 min"

* * *

system_under_test: Cytochrome P450 2D6 (Homo sapiens)
pIC50: −log10 of the molar value.
outcome_measure: pIC50

smiles_representation=CC(=O)N1CCCn2nc(COc3ccccc3)cc21 observed_value="< 4.52"

* * *

assay_text: Volume of distribution at steady state in Sprague-Dawley rat at 2.5 mg/kg, iv and 10 mg/kg, po
Format: ADME, organism-based
run_conditions: in vivo, read-out: Vdss
outcome_measure: Vd (L/kg)

smiles_representation=CC(=O)N1CCCn2nc(COc3ccccc3)cc21 observed_value=3.9

* * *

Each record here notes measured %max.
system_under_test: Metabotropic glutamate receptor 5 (Homo sapiens, UniProt P41594)
assay_text: Positive allosteric modulation of human mGlu5 expressed in HEK293 cells assessed as calcium mobilization relative to glutamate
Type: functional, cell-based
Sequence (P41594 21-1212 limits assumed): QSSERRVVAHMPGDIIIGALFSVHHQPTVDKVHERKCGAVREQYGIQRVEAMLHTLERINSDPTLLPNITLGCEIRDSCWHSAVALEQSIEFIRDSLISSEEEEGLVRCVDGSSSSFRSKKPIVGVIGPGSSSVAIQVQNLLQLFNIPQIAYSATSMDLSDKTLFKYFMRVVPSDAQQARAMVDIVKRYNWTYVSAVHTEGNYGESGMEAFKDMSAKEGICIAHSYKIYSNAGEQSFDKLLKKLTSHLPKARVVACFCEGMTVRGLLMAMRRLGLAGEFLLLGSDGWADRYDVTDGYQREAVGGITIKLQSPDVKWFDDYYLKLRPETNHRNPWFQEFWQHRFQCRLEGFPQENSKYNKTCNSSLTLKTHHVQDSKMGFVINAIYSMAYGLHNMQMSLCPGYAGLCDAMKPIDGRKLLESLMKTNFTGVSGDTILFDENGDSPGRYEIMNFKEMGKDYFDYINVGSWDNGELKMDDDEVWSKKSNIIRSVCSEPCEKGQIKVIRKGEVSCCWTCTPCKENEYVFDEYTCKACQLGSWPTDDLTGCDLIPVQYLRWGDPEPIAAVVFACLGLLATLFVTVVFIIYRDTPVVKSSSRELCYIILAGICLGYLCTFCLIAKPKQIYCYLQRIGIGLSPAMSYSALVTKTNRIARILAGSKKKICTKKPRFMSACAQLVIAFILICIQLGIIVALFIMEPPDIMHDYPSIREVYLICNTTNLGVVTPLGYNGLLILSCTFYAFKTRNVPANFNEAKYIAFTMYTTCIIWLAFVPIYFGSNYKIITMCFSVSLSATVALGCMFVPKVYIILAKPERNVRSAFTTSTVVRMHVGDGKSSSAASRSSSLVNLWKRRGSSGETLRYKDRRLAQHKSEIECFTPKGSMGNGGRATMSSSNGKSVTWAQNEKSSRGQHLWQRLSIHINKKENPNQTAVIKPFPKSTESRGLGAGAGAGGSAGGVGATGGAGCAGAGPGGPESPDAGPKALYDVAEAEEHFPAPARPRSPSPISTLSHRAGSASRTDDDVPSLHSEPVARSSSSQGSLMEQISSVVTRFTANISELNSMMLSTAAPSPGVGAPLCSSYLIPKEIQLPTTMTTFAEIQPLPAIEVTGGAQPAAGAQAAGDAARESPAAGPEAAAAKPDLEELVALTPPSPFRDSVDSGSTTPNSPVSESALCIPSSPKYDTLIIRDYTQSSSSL
outcome_measure: %max

compound="CC(=O)N1CCCn2nc(C[S+]([O-])c3ccccc3)cc21 (configuration not stated)" observed_value="< 15%"
compound=O=C(c1ccco1)N1CCCn2nc(COc3ccccc3)cc21 observed_value="< 15%"
compound=CC(=O)N1CCCn2nc(CN(C)c3ccccc3)cc21 observed_value=74%
compound=CC(C)(C)C(=O)N1CCCn2nc(COc3ccccc3)cc21 observed_value=64%
compound=O=C(Cc1ccccc1)N1CCCn2nc(COc3ccccc3)cc21 observed_value=72%
compound=O=C(c1ccncc1)N1CCCn2nc(COc3ccccc3)cc21 observed_value=51%
compound=O=C(C1CCC1)N1CCCn2nc(COc3ccccc3)cc21 observed_value=41%
compound=CC(=O)N1CCCn2nc(COc3cc(F)cc(F)c3)cc21 observed_value=63%
compound=O=C(c1cccc(F)c1)N1CCCn2nc(COc3ccccc3)cc21 observed_value=61%
compound=O=C(c1ccccc1F)N1CCCn2nc(COc3ccccc3)cc21 observed_value=62%
compound=CCC(=O)N1CCCn2nc(COc3ccccc3)cc21 observed_value=48%
compound=O=C(c1ccccn1)N1CCCn2nc(COc3ccccc3)cc21 observed_value=44%

* * *

system_under_test: Metabotropic glutamate receptor 3 (Homo sapiens)
Sequence (Q14832 whole entry): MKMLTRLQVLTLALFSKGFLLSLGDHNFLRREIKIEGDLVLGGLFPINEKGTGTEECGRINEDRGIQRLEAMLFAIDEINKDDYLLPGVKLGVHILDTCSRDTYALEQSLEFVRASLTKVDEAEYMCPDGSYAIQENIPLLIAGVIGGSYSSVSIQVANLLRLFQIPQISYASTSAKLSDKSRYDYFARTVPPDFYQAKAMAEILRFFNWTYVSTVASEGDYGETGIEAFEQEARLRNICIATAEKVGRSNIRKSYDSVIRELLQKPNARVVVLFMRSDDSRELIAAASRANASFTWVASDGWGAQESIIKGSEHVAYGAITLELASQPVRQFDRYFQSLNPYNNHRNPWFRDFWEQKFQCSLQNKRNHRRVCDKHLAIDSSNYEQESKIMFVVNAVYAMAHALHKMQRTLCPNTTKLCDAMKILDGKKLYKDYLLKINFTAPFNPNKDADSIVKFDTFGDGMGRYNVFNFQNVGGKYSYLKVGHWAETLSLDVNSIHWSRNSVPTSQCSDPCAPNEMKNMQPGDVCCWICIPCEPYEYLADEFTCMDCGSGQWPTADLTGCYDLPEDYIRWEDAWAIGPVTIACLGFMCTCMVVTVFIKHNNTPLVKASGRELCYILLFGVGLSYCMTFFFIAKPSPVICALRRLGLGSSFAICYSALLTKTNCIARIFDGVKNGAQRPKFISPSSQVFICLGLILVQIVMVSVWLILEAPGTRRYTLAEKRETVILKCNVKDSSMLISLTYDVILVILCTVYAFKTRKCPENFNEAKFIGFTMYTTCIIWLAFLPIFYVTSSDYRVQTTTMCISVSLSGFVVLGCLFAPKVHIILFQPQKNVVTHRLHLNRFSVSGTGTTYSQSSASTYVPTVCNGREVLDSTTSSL
assay_text: Positive allosteric modulation of mGlu3 receptor (unknown origin) relative to control
outcome_measure: EC50

smiles_representation=CC(=O)N1CCCn2nc(COc3ccccc3)cc21 outcome_measure=EC50 observed_value="> 10 µM"

* * *

Each record here notes measured Fu.
Tested on: Plasma
assay_text: Fraction unbound in human plasma
Format: ADME, cell-free
outcome_measure: Fu

smiles_representation=CC(=O)N1CCCn2nc(COc3ccccc3)cc21 observed_value=0.26
smiles_representation=CC(=O)N1CCCn2nc(CN(C)c3ccccc3)cc21 observed_value=0.46
smiles_representation=CC(=O)N1CCCn2nc(CN3CCOc4ccccc43)cc21 observed_value=0.35
smiles_representation=CC(=O)N1CCCn2nc(COc3ccccc3F)cc21 observed_value=0.17

* * *

system_under_test: Metabotropic glutamate receptor 7 (Homo sapiens)
assay_text: Positive allosteric modulation of mGlu7 receptor (unknown origin) relative to control
outcome_measure: EC50

smiles_representation=CC(=O)N1CCCn2nc(COc3ccccc3)cc21 observed_value="> 10 µM"

* * *

system_under_test: Metabotropic glutamate receptor 5 (Homo sapiens, UniProt P41594)
assay_text: Positive allosteric modulation of human mGlu5 expressed in HEK293 cells assessed as calcium mobilization
Format: functional, cell-based
run_conditions: read-out: EC50
Sequence (P41594 whole entry): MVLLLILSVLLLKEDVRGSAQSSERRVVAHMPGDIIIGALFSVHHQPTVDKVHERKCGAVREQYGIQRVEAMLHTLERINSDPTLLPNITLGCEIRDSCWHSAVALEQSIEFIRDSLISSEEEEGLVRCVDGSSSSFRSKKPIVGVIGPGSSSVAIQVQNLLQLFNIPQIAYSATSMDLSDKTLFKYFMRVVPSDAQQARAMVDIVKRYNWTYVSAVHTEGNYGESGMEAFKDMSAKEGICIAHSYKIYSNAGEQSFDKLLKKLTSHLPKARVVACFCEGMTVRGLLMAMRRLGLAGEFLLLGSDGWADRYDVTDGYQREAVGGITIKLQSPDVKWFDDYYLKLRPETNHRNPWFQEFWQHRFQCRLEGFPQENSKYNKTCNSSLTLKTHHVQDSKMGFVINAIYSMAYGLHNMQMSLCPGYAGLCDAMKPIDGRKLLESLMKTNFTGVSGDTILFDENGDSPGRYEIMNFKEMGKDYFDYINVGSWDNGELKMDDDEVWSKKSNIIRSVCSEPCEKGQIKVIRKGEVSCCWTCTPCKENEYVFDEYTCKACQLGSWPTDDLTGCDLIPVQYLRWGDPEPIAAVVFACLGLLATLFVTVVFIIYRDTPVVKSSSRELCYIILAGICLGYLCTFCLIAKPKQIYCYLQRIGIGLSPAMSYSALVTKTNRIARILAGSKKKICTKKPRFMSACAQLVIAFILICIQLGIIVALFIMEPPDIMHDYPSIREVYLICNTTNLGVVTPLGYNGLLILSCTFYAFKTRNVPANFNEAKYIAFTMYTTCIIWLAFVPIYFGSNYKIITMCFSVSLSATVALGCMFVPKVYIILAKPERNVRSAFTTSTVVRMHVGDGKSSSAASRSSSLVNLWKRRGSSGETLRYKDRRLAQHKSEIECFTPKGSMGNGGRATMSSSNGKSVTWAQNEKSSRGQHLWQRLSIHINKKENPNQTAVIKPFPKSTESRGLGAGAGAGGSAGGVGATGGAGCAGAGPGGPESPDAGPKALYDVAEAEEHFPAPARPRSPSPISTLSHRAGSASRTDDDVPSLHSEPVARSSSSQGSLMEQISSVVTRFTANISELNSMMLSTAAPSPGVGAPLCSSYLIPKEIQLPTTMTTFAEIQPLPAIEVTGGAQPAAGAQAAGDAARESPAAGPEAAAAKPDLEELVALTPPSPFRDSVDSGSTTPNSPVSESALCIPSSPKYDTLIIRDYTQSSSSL
Each record here notes measured log10 EC50.
outcome_measure: log10 EC50 (log10 of the value in µM)

compound=CC(=O)N1CCCn2nc(CN3CCOc4ccccc43)cc21 observed_value=-0.14
compound=CC(=O)N1CCCn2nc(COc3ccccc3)cc21 observed_value=-0.44
compound=CC(=O)N1CCCn2nc(COc3ccccc3)nc21 observed_value=0.53
compound=O=C(c1ccno1)N1CCCn2nc(COc3ccccc3)cc21 observed_value=0.44
compound=CC(=O)N1CCCn2nc(COc3ccccc3F)cc21 observed_value=0.37
compound="CC(=O)N1c2cc(COc3ccccc3)nn2CCC1C (configuration not stated)" observed_value=-0.10
compound=O=C(C1CCC1)N1CCCn2nc(COc3ccccc3)cc21 observed_value=0.09
compound=CC(C)C(=O)N1CCCn2nc(COc3ccccc3)cc21 observed_value=0.23
compound=O=C(c1nccs1)N1CCCn2nc(COc3ccccc3)cc21 observed_value=-0.59
compound=CCC(=O)N1CCCn2nc(COc3ccccc3)cc21 observed_value=-0.48
compound=CC(=O)N1CCCn2nc(CSc3ccccc3)cc21 observed_value=0.59

* * *

assay_text: Plasma clearance in Sprague-Dawley rat at 2.5 mg/kg, iv and 10 mg/kg, po
Format: ADME, organism-based
outcome_measure: clearance (mL/min/kg)

smiles_representation=CC(=O)N1CCCn2nc(COc3ccccc3)cc21 outcome_measure=clearance observed_value=54

* * *

system_under_test: Metabotropic glutamate receptor 1 (Homo sapiens, UniProt Q13255)
assay_text: Positive allosteric modulation of mGlu1 receptor (unknown origin) relative to control
outcome_measure: EC50

smiles_representation=CC(=O)N1CCCn2nc(COc3ccccc3)cc21 system_under_test="Metabotropic glutamate receptor 1 (Homo sapiens, UniProt Q13255)" outcome_measure=EC50 observed_value="> 10 µM"

* * *

system_under_test: Metabotropic glutamate receptor 4 (Homo sapiens, UniProt Q14833)
assay_text: Positive allosteric modulation of mGlu4 receptor (unknown origin) relative to control
pEC50: −log10 of the molar value.
outcome_measure: pEC50

smiles_representation=CC(=O)N1CCCn2nc(COc3ccccc3)cc21 observed_value="< 5.00"

* * *

assay_text: AUC in dog plasma at 1 mg/kg, iv and 5 mg/kg, po
Type: ADME, organism-based, Canis lupus familiaris
outcome_measure: AUC

smiles_representation=CC(=O)N1CCCn2nc(COc3ccccc3)cc21 observed_value="0.1 µM·h"

* * *

System: Plasma
assay_text: Stability in rat plasma after 4 hrs
Type: ADME, cell-free
outcome_measure: Stability

smiles_representation=CC(=O)N1CCCn2nc(COc3ccccc3)cc21 observed_value=Stable
smiles_representation=CC(=O)N1CCCc2nc(COc3ccccc3)cn21 observed_value=Unstable
smiles_representation=CC(=O)N1CCCn2nc(COc3ccccc3F)cc21 observed_value=Stable
smiles_representation=CC(=O)N1CCCc2nc(COc3ccccc3)oc21 observed_value=Unstable

* * *

system_under_test: UniProt P41594
assay_text: Positive allosteric modulation of human mGlu5 expressed in HEK293 cells assessed as calcium mobilization relative to glutamate
Format: functional, cell-based
// NOT MET strictly below 60% in %max; MET otherwise

molecule=CC(=O)N1CCCn2nc(CS(=O)(=O)c3ccccc3)cc21 system_under_test="UniProt P41594" cat="NOT MET"
molecule=CC(=O)N1CCCn2nc(COc3ccccc3)cc21 system_under_test="UniProt P41594" cat=MET
molecule=O=C(c1ccccc1)N1CCCn2nc(COc3ccccc3)cc21 system_under_test="UniProt P41594" cat=MET
molecule=CC(=O)N1CCCn2nc(CN3CCCc4ccccc43)cc21 system_under_test="UniProt P41594" cat="NOT MET"
molecule=O=C(C1CCCC1)N1CCCn2nc(COc3ccccc3)cc21 system_under_test="UniProt P41594" cat="NOT MET"
molecule=CC(=O)N1CCCn2nc(COc3cccc(F)c3)cc21 system_under_test="UniProt P41594" cat="NOT MET"
molecule=O=C(c1ccc(Cl)cc1)N1CCCn2nc(COc3ccccc3)cc21 system_under_test="UniProt P41594" cat=MET
molecule=O=C(c1ccc(F)cc1)N1CCCn2nc(COc3ccccc3)cc21 system_under_test="UniProt P41594" cat=MET
molecule=CC(=O)N1CCCn2nc(CN3CCOc4ccccc43)cc21 system_under_test="UniProt P41594" cat=MET
molecule=CC(=O)N1CCCn2nc(COc3ccc(F)cc3)cc21 system_under_test="UniProt P41594" cat="NOT MET"
molecule=CC(=O)N1CCCn2nc(COc3ccncc3)cc21 system_under_test="UniProt P41594" cat="NOT MET"
molecule="CC(=O)N1c2cc(COc3ccccc3)nn2CCC1C (configuration not stated)" system_under_test="UniProt P41594" cat=MET
